Target: JNK3 (Homo sapiens, UniProt P53779)
Sequence (P53779 whole entry, species assumed): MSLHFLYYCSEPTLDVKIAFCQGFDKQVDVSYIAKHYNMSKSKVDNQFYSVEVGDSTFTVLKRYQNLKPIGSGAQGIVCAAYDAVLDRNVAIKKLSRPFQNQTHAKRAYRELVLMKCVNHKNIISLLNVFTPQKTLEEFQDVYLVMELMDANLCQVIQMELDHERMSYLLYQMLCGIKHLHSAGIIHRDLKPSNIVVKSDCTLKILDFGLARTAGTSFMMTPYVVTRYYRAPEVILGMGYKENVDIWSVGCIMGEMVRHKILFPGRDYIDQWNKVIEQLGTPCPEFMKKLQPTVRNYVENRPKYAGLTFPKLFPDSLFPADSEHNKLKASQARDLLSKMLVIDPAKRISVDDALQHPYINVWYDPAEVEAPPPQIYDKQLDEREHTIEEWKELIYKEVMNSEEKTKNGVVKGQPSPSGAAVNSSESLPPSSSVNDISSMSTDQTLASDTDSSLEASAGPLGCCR
pIC50: −log10 of the molar value.
value.kind: pIC50

• Cn1cc(-c2c[nH]c3ncc(C4CCCCC4)nc23)cn1 = 6.75
